Test system: Enterococcus faecium
Assay: Antibacterial activity against vancomycin-resistant Enterococcus faecium ATCC 700221 by NCCLS method
Type: functional
Below is a list of entries, each paired with its recorded MIC value.
Give the number; mg/L is assumed, so skip it.

Some molecules with recorded MIC:
CC(C)NC(=N)c1ccc2[nH]c(-c3ccc(CCc4ccc(-c5nc6cc(C(=N)NC(C)C)ccc6[nH]5)cc4)cc3)nc2c1 | 0.12
CC(C)NC(=N)c1ccc2[nH]c(-c3ccc(COc4ccc(-c5nc6cc(C(=N)NC(C)C)ccc6[nH]5)cc4)cc3)nc2c1 | 0.12
CC(C)NC(=N)c1ccc2[nH]c(-c3ccc4c(c3)Cc3ccc(-c5nc6cc(C(=N)NC(C)C)ccc6[nH]5)cc3S4)nc2c1 | 0.5

Q: Supply measured MIC of "CC(C)NC(=N)c1ccc2[nH]c(-c3ccc(-c4ccc(-c5ccc(-c6nc7cc(C(=N)NC(C)C)ccc7[nH]6)cc5)o4)cc3)nc2c1" in your reply.
A: 2

Q: Identify the reported MIC for the following entry. "CC(C)NC(=N)c1ccc2[nH]c(-c3ccc(/C=C/c4ccc(-c5nc6cc(C(=N)NC(C)C)ccc6[nH]5)cc4)cc3)nc2c1"
A: 0.25

Q: Give the measured MIC for "CC(C)NC(=N)c1ccc2[nH]c(-c3ccc(C#Cc4ccc(-c5nc6cc(C(=N)NC(C)C)ccc6[nH]5)cc4)cc3)nc2c1"
A: 0.5

Q: Look up and report measured MIC for this entry: "CC(C)NC(=N)c1ccc2[nH]c(-c3ccc(Cc4ccc(-c5nc6cc(C(=N)NC(C)C)ccc6[nH]5)cc4)cc3)nc2c1"
A: 0.12

Q: State its MIC: "CC(C)NC(=N)c1ccc2[nH]c(-c3ccc(Nc4ccc(-c5nc6cc(C(=N)NC(C)C)ccc6[nH]5)cc4)cc3)nc2c1"
A: 0.12

Q: Tell me its MIC given "CC(C)NC(=N)c1ccc2[nH]c(-c3ccc(Sc4ccc(-c5nc6cc(C(=N)NC(C)C)ccc6[nH]5)cc4)cc3)nc2c1" as the entry.
A: 16

Q: Give the measured MIC for "CC(C)NC(=N)c1ccc2[nH]c(-c3ccc(NS(=O)(=O)c4ccc(-c5nc6cc(C(=N)NC(C)C)ccc6[nH]5)cc4)cc3)nc2c1"
A: 4

Q: Please supply the value of reported MIC for the item "CC(C)NC(=N)c1ccc2[nH]c(-c3ccc([C@@H]4C[C@H]4c4ccc(-c5nc6cc(C(=N)NC(C)C)ccc6[nH]5)cc4)cc3)nc2c1"
A: 0.12
